Biological target: Succinate dehydrogenase [ubiquinone] iron-sulfur subunit, mitochondrial (Homo sapiens, UniProt P21912)
Sequence (P21912 whole entry): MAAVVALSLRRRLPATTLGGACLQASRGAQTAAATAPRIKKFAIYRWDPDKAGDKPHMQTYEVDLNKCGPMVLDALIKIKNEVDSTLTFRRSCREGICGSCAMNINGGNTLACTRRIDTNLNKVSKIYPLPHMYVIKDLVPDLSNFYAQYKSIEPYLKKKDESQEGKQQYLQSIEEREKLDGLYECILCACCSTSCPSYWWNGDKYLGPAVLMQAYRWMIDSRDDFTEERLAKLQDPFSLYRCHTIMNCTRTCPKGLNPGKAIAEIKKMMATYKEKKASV
Assay: Apoptosis Inhibition Assay
VALUE_KIND: EC50 (nM)

As a guide, the following entries are already answered.
1. N#Cc1cccc(C[S+]([O-])c2nc(-c3cccs3)cc(C(F)(F)F)n2)c1 (configuration not stated)
3520
2. N#Cc1ccccc1C[S+]([O-])c1nc(-c2cccs2)cc(C(F)(F)F)n1 (configuration not stated)
7030
3. COC(=O)CCC[S+]([O-])c1nc(-c2cccs2)cc(C(F)(F)F)n1 (configuration not stated)
64
4. O=S(=O)(Cc1cc(F)cc(F)c1)c1nc(-c2cccs2)cc(C(F)(F)F)n1
1160

[1] [O-][S+](Cc1ccc2ncccc2c1)c1nc(-c2cccs2)cc(C(F)(F)F)n1 (configuration not stated)
[2] [O-][S+](Cc1ccc(-c2ccccc2)cc1)c1nc(-c2cccs2)cc(C(F)(F)F)n1 (configuration not stated)
[3] O=S(=O)(Cc1ccc2c(ccc[n+]2[O-])c1)c1nc(-c2cccs2)cc(C(F)(F)F)n1
*Q* Rank items: key EC50, increasing. List the labels according to the requested ordering.
*A* 3, 1, 2
(3: 57 nM, 1: 110 nM, 2: 257 nM)
